Settings: 323.15 K; 100 kPa; Liquid
I would appreciate it if you labelled entries t when viscosity is 2 mPa·s or higher, otherwise f.

QUERY: Decide: viscosity of `CCC12CC3CC(CC(C3)C1)C2` >= 2 mPa·s?
RESULT: t

QUERY: Answer whether viscosity of `CC12CC3CC(C)(C1)CC(C)(C3)C2` is greater than or equal to 2 mPa·s.
RESULT: f

QUERY: Given the entry `CCCCCCCO` , answer whether its viscosity meets or surpasses 2 mPa·s.
RESULT: t

QUERY: Quick check: does `OCC1CCCCC1` have viscosity greater than or equal to 2 mPa·s?
RESULT: t

* * *

Conditions: 318.15 K; 100 kPa; Liquid; Vibrating tube method
For each record, write down the corresponding mass density.
Give the number; kg/m3 is assumed, so skip it.

QUERY: Recall and state the measured mass density for CC12CC3CC(C1)CC(C)(C3)C2 [1,3-dimethyladamantane] .
RESULT: 883.77

QUERY: Report measured mass density; entry is CCC12CC3CC(CC(C3)C1)C2 [1-ethyladamantane]
RESULT: 919.21

QUERY: Look up and state reported mass density for CCCCCCCO [heptan-1-ol]
RESULT: 804.56

QUERY: Respond only with mass density recorded for OCC1CCCCC1 [cyclohexylmethanol]
RESULT: 911.88

QUERY: Provide mass density value for the following molecule: CC12CC3CC(C)(C1)CC(C)(C3)C2 [1,3,5-trimethyladamantane]
RESULT: 869.86

* * *

I'd be grateful if you could share measured surface tension liquid-gas for these entries.
Settings: 298.15 K, Drop volume
Numbers after ± are expanded uncertainties.

QUERY: Identify the reported surface tension liquid-gas for the following entry. `CC12CC3CC(C)(C1)CC(C)(C3)C2`
RESULT: 26.17 ± 0.15 mN/m

QUERY: Assign surface tension liquid-gas to the following record: `CCC12CC3CC(CC(C3)C1)C2`
RESULT: 29.87 ± 0.18 mN/m

QUERY: Give reported surface tension liquid-gas value for `CC12CC3CC(C1)CC(C)(C3)C2`
RESULT: 27.88 ± 0.15 mN/m

QUERY: Using the record for `OCC1CCCCC1` , state its measured surface tension liquid-gas.
RESULT: 32.43 ± 0.18 mN/m

QUERY: Identify surface tension liquid-gas associated with the compound `CCCCCCCO`
RESULT: 26.23 ± 0.16 mN/m

* * *

Experiment: refractive index (Na D-line) (dimensionless)
Details: 303.15 K; 101.33 kPa; Liquid; Standard Abbe refractometry
Result Type: refractive index
Answer field: number only, no words.

QUERY: Output refractive index of `CCC12CC3CC(CC(C3)C1)C2`
RESULT: 1.4884

QUERY: Input `CC12CC3CC(C1)CC(C)(C3)C2` , output reported refractive index.
RESULT: 1.4734

QUERY: State its refractive index for this compound: `OCC1CCCCC1`
RESULT: 1.4592

QUERY: # return recorded refractive index for input `CC12CC3CC(C)(C1)CC(C)(C3)C2`
RESULT: 1.4695

QUERY: Indicate its recorded refractive index; the compound in question is `CCCCCCCO`
RESULT: 1.4203

* * *

Conditions: 313.15 K; 100 kPa; Liquid
Result Type: viscosity (mPa·s)
Use mPa·s as the unit, but write only the number.

QUERY: For CC12CC3CC(C1)CC(C)(C3)C2 [1,3-dimethyladamantane] , write its viscosity.
RESULT: 2.458

QUERY: Output viscosity of CC12CC3CC(C)(C1)CC(C)(C3)C2 [1,3,5-trimethyladamantane]
RESULT: 1.765

QUERY: // fetch viscosity given entry OCC1CCCCC1 [cyclohexylmethanol]
RESULT: 14.09

QUERY: Report viscosity for CCC12CC3CC(CC(C3)C1)C2 [1-ethyladamantane]
RESULT: 3.878

QUERY: Output measured viscosity for this item: CCCCCCCO [heptan-1-ol]
RESULT: 3.654

* * *

Conditions: 308.15 K; 100 kPa; Liquid
± gives the expanded uncertainty stated by the source.
Result Type: viscosity
State the value with its unit after it.

QUERY: Please give measured viscosity of the following entry: CCCCCCCO [heptan-1-ol]
RESULT: 4.245 ± 0.067 mPa·s

QUERY: For the molecule OCC1CCCCC1 [cyclohexylmethanol] , give its measured viscosity value.
RESULT: 17.57 ± 0.28 mPa·s

QUERY: Write down viscosity measured for item CCC12CC3CC(CC(C3)C1)C2 [1-ethyladamantane]
RESULT: 4.348 ± 0.069 mPa·s

QUERY: Tell us which viscosity value is on record for CC12CC3CC(C1)CC(C)(C3)C2 [1,3-dimethyladamantane]
RESULT: 2.711 ± 0.042 mPa·s

QUERY: Specify viscosity for CC12CC3CC(C)(C1)CC(C)(C3)C2 [1,3,5-trimethyladamantane] and stop.
RESULT: 1.93 ± 0.03 mPa·s

* * *

Test: refractive index (Na D-line) (dimensionless)
Conditions: 298.15 K; 101.33 kPa; Liquid; Standard Abbe refractometry
Exercise: state measured refractive index for each of the molecules provided.
Form: value (number only, do not type unit).

QUERY: Output measured refractive index for this item: CC12CC3CC(C)(C1)CC(C)(C3)C2 [1,3,5-trimethyladamantane]
RESULT: 1.4715

QUERY: Check the records and state refractive index for CC12CC3CC(C1)CC(C)(C3)C2 [1,3-dimethyladamantane]
RESULT: 1.4757

QUERY: Could you please provide reported refractive index for CCC12CC3CC(CC(C3)C1)C2 [1-ethyladamantane] ? Thanks!
RESULT: 1.4906

QUERY: // Input: CCCCCCCO [heptan-1-ol] . Output its refractive index only.
RESULT: 1.422

QUERY: Give reported refractive index value for OCC1CCCCC1 [cyclohexylmethanol]
RESULT: 1.4612

* * *

Hi there, I'd appreciate the recorded refractive index for every entry that follows.
Experiment: refractive index (Na D-line) (dimensionless)
Details: 323.15 K; 101.33 kPa; Liquid; Standard Abbe refractometry
Form rule: numeric answer, no unit written next to it.

QUERY: Determine its reported refractive index: `CCCCCCCO`
RESULT: 1.4115

QUERY: Report measured refractive index; entry is `CCC12CC3CC(CC(C3)C1)C2`
RESULT: 1.4802

QUERY: Fill in refractive index for record `CC12CC3CC(C)(C1)CC(C)(C3)C2`
RESULT: 1.4612

QUERY: Please give the documented refractive index of `OCC1CCCCC1`
RESULT: 1.4507

QUERY: Assign refractive index to the following record: `CC12CC3CC(C1)CC(C)(C3)C2`
RESULT: 1.4651

* * *

Conditions: 303.15 K; 100 kPa; Liquid
Result Type: viscosity (mPa·s)
Record the value in mPa·s, omitting the unit from your answer.

QUERY: Report measured viscosity; entry is `OCC1CCCCC1`
RESULT: 22.34

QUERY: Please report the measured viscosity for `CC12CC3CC(C)(C1)CC(C)(C3)C2`
RESULT: 2.118

QUERY: Recall and state the measured viscosity for `CCC12CC3CC(CC(C3)C1)C2` .
RESULT: 4.903

QUERY: Fill in viscosity for record `CC12CC3CC(C1)CC(C)(C3)C2`
RESULT: 3.004

QUERY: For `CCCCCCCO` , write its viscosity.
RESULT: 4.95

* * *

Details: 298.15 K; 100 kPa; Liquid; Vibrating tube method
Please respond with MET when measured mass density is strictly beneath 900 kg/m3, and with NOT MET in all other cases.

QUERY: Decide: mass density of `CCC12CC3CC(CC(C3)C1)C2` strictly below 900 kg/m3?
RESULT: NOT MET

QUERY: Quick check: mass density of `CCCCCCCO` under 900 kg/m3?
RESULT: MET

* * *

Kindly state mass density for each of the entries shown.
Conditions: 308.15 K; 100 kPa; Liquid; Vibrating tube method
// return numeric value only (unit: kg/m3, not printed)

QUERY: Given `CC12CC3CC(C)(C1)CC(C)(C3)C2` , respond with its mass density.
RESULT: 876.94

QUERY: Write down mass density measured for item `CC12CC3CC(C1)CC(C)(C3)C2`
RESULT: 890.92

QUERY: Provide only the value of recorded mass density for `OCC1CCCCC1`
RESULT: 919.14

QUERY: Give me measured mass density, please, for this compound: `CCC12CC3CC(CC(C3)C1)C2`
RESULT: 926.4

QUERY: Specify mass density for `CCCCCCCO` and stop.
RESULT: 811.74

* * *

Conditions: 293.15 K; 100 kPa; Liquid; Vibrating tube method
Binary call on mass density: y from 900 kg/m3 upward, n beneath that.

QUERY: Check this compound for mass density at or above 900 kg/m3: OCC1CCCCC1 [cyclohexylmethanol]
RESULT: y

QUERY: Record CCC12CC3CC(CC(C3)C1)C2 [1-ethyladamantane] ; criterion: mass density no lower than 900 kg/m3. Met?
RESULT: y

QUERY: For this compound, is measured mass density 900 kg/m3 or higher? CCCCCCCO [heptan-1-ol]
RESULT: n

// data source = the NIST ThermoML archive (doi:10.1021/je500381c)
